Target: human plasma kallikrein (Homo sapiens)
Experiment: Kallikrein inhibition FLINT assay with quenched AMC peptide substrate Z-Gly-Pro-Arg-AMC (end point EP or kinetic KIN reads)
Type: biochemical
Settings: kinetic reads at 5 min intervals over 30 min; read-out: Kallikrein (KIN) IC50
property-measured: pIC50
Please treat pIC50 as minus the base-10 logarithm of the molar concentration.

INSERT INTO results (compound, experimental_system, numeric_readout) VALUES
  ('CCC(c1cc(OC)c(-c2cc(Cl)ccc2-n2cc(C(F)(F)F)nn2)c[n+]1[O-])n1cc(-c2ncnn2C)cn1 (single isomer, unassigned) [Example P922]', 'human plasma kallikrein (Homo sapiens)', 7.26),
  ('N#Cc1cc(-c2cnn(C(CN3CCOC3=O)c3ccc(-c4c(-n5cnnn5)ccc(Cl)c4F)c[n+]3[O-])c2)ccn1 (single isomer, unassigned) [Example P439]', 'human plasma kallikrein (Homo sapiens)', 7.16),
  ('[2H]C([2H])(C[C@H](c1ccc(-c2c(-n3cnnn3)ccc(Cl)c2F)c[n+]1[O-])n1cc(-c2cn(C)nc2Cl)cn1)OC(F)F [Example P850]', 'human plasma kallikrein (Homo sapiens)', 8.85),
  ('[O-][n+]1cc(-c2c(-n3cnnn3)ccc(Cl)c2F)ccc1C(Cn1cc(F)cn1)n1cc(-c2ccnc(C(F)(F)F)c2)cn1 (stereo not drawn) [Example P275]', 'human plasma kallikrein (Homo sapiens)', 7.72);

Problem: Using the record for Cn1nncc1-c1cnn([C@H](CCOC(F)F)c2ccc(-c3c(N)ccc(Cl)c3F)c[n+]2[O-])c1 [Example Q44] , report its pIC50.
Result: 7.09

Problem: Using the record for [O-][n+]1cc(-c2c(-n3cnnn3)ccc(Cl)c2F)ccc1C(Cn1cc(-c2ccccn2)cn1)n1cc(-c2ccccn2)cn1 (single isomer, unassigned) [Example P516] , report its pIC50.
Result: 6.86

----------
Target: human plasma kallikrein (Homo sapiens, UniProt P03952)
Sequence (P03952 391-638 limits assumed): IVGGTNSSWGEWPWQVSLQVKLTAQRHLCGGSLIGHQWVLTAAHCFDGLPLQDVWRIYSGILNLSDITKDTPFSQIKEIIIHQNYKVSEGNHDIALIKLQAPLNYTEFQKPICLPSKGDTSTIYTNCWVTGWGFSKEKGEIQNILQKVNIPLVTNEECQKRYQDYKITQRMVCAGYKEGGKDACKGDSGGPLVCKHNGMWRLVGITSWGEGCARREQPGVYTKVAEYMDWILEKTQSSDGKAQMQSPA
Sequence (P03952 20-390 partner limits assumed): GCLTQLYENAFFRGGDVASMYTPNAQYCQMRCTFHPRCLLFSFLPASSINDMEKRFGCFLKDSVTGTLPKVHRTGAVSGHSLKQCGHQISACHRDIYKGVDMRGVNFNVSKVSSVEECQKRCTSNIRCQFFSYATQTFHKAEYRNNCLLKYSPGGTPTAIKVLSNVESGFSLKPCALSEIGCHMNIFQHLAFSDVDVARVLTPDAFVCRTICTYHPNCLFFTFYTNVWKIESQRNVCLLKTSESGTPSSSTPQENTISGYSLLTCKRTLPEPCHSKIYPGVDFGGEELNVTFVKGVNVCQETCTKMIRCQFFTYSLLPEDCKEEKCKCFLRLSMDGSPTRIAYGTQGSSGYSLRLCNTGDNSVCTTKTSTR
Assay: Kallikrein inhibition FLINT assay with quenched AMC peptide substrate Z-Gly-Pro-Arg-AMC (end point EP or kinetic KIN reads)
Assay type: biochemical
Settings: kinetic reads at 5 min intervals over 30 min; read-out: Kallikrein (KIN) IC50
property-measured: pIC50
Please treat pIC50 as minus the base-10 logarithm of the molar concentration.

# annotated cases, reported pIC50 shown
INSERT INTO results (compound, numeric_readout) VALUES
  ('COC(=O)Nc1ccc(-c2cnn(C(CC3CCC3)c3ccc(-c4c(-n5cnnn5)ccc(Cl)c4F)c[n+]3[O-])c2)cc1 (stereo not drawn) [Example P109]', 7.34),
  ('N#Cc1cc(-c2cnn(C(Cn3cc(F)cn3)c3ccc(-c4c(-n5cnnn5)ccc(Cl)c4F)c[n+]3[O-])c2)ccn1 (single isomer, unassigned) [Example P454]', 7.90),
  ('CC(C)n1ccc(C[C@H](c2ccc(-c3c(-n4cnnn4)ccc(Cl)c3F)c[n+]2[O-])n2cc(-c3ccnc(C(F)(F)F)c3)cn2)n1 [Example P652]', 8.66),
  ('CN(CC(c1ccc(-c2c(-n3cnnn3)ccc(Cl)c2F)c[n+]1[O-])n1cc(-c2ccnc(C(F)(F)F)c2)cn1)C(=O)c1ccccc1 (single isomer, unassigned) [Example P423]', 7.36),
  ('COc1cc(C(Cc2ccn(C(F)F)n2)n2cc(-c3ccc(C(=O)O)c(F)c3)cn2)[n+]([O-])cc1-c1c(C(F)F)ccc(Cl)c1F (stereo not drawn) [Example Q74]', 7.96),
  ('Cn1nncc1-c1cnn([C@H](Cc2ccn(C(F)F)n2)c2ccc(-c3c(-n4cc(C(F)(F)F)nn4)ccc(Cl)c3F)c[n+]2[O-])c1 [Example P792]', 7.12),
  ('O=c1ccccn1CC(c1ccc(-c2c(-n3cnnn3)ccc(Cl)c2F)c[n+]1[O-])n1cc(-c2ccnc(C(F)(F)F)c2)cn1 (stereo not drawn) [Example P358]', 7.09),
  ('NC(=O)c1ccc(-c2cnn(C(Cc3ncco3)c3ccc(-c4c(-n5cc(C(F)(F)F)nn5)ccc(Cl)c4F)c[n+]3[O-])c2)cc1F (stereo not drawn) [Example P909]', 8.26),
  ('O=C(O)c1ccc(-c2cnn(C(Cc3ccn(C(F)F)n3)c3ccc(-c4c(-n5cc(C(F)(F)F)nn5)ccc(Cl)c4F)c[n+]3[O-])c2)cc1F (single isomer, unassigned) [Example P931]', 8.60),
  ('CN(CC(c1ccc(-c2c(-n3cnnn3)ccc(Cl)c2F)c[n+]1[O-])n1cc(-c2ccnc(C(F)(F)F)c2)cn1)C(=O)c1ccccc1 (single isomer, unassigned) [Example P409]', 7.49);

Problem: Using the record for Cc1cc(C(CC2CC2)n2cc(-c3cnn(C)c(=O)c3)cn2)[n+]([O-])cc1-c1c(-n2cnnn2)ccc(Cl)c1F (stereo not drawn) [Example P130] , report its pIC50.
Result: 6.02

Problem: Using the record for Cn1ncc(O)c1-c1cnn(C(CCOC(F)F)c2ccc(-c3c(-n4cc(Cl)nn4)ccc(Cl)c3F)c[n+]2[O-])c1 (stereo not drawn) [Example P747] , report its pIC50.
Result: 7.58

----------
Target: human plasma kallikrein (Homo sapiens)
Assay: Kallikrein inhibition FLINT assay with quenched AMC peptide substrate Z-Gly-Pro-Arg-AMC (end point EP or kinetic KIN reads)
Format: biochemical
Conditions: kinetic reads at 5 min intervals over 30 min; read-out: Kallikrein (KIN) IC50
Field 'label' (enum: Fulfilled / Not fulfilled). Set to Fulfilled when IC50 is strictly under 40 nM; else Not fulfilled.

Below are worked cases with known answers.
INSERT INTO measurements (compound, class) VALUES
  ('COc1cc(C(CC2CC2)n2cc(-c3cnn(C(C)C)c(=O)c3)cn2)[n+]([O-])cc1-c1c(-n2cnnn2)ccc(Cl)c1F (stereo not drawn)', 'Not fulfilled'),
  ('Cn1ncnc1-c1cnn(C(CC2CNCCO2)c2ccc(-c3c(-n4cc(C(F)(F)F)nn4)ccc(Cl)c3F)c[n+]2[O-])c1 (stereo not drawn)', 'Not fulfilled'),
  ('[O-][n+]1cc(-c2c(-n3cnnn3)ccc(Cl)c2F)ccc1C(Cc1ccc(C(F)(F)F)nc1)n1cc(-c2ccnn2C(F)F)cn1 (stereo not drawn)', 'Not fulfilled');

Problem: Threshold test, IC50 < 40 nM: Nc1ccc(-c2cnn(C(Cn3cc(F)cn3)c3ccc(-c4c(C(F)F)ccc(Cl)c4F)c[n+]3[O-])c2)c(F)n1 (single isomer, unassigned) [Example Q25]
Result: Fulfilled

Problem: Threshold test, IC50 < 40 nM: O=C(O)c1ccc(-c2cnn(C(CCc3ccccc3)c3ccc(-c4cc(Cl)ccc4-n4cnnn4)c[n+]3[O-])c2)cc1 (stereo not drawn)
Result: Not fulfilled

Problem: Threshold test, IC50 < 40 nM: [O-][n+]1cc(-c2c(-n3cnnn3)ccc(Cl)c2F)ccc1C(C(O)c1ccccc1)n1cc(-c2ccnn2C(F)F)cn1 (single isomer, unassigned) [Example P719]
Result: Not fulfilled

----------
Target: human plasma kallikrein (Homo sapiens, UniProt P03952)
Assay: Kallikrein inhibition FLINT assay with quenched AMC peptide substrate Z-Gly-Pro-Arg-AMC (end point EP or kinetic KIN reads)
Type: biochemical
Conditions: kinetic reads at 5 min intervals over 30 min; read-out: Kallikrein (KIN) IC50
Assign classes using reported IC50 values and the ranges L (below 0.02 µM), M (0.02 µM to below 0.1 µM), H (0.1 µM or more), please.

Below are worked cases with known answers.
INSERT INTO measurements (molecule, class) VALUES
  ('NC(=O)c1ccc(-c2cnn(C(CC3CC3)c3ccc(-c4c(-n5cnnn5)ccc(Cl)c4F)c[n+]3[O-])c2)cc1F (single isomer, unassigned) [Example P947]', 'L'),
  ('[O-][n+]1cc(-c2c(-n3cnnn3)ccc(Cl)c2F)ccc1[C@@H](CCOC(F)F)n1cc(-c2nn(C(F)F)cc2Cl)cn1', 'M'),
  ('NC(=O)c1ccc(-c2cnn(C(Cc3ccn(C(F)F)n3)c3ccc(-c4c(-n5cc(C(F)(F)F)nn5)ccc(Cl)c4F)c[n+]3[O-])c2)cc1F (single isomer, unassigned) [Example P891]', 'H'),
  ('[O-][n+]1cc(-c2c(-n3cc(Cl)nn3)ccc(Cl)c2F)ccc1C(Cn1cc(F)cn1)n1cc(-c2ccnc(C(F)(F)F)c2)cn1 (stereo not drawn) [Example P479]', 'H'),
  ('CC(C)n1ccc(C[C@@H](c2ccc(-c3c(-n4cnnn4)ccc(Cl)c3F)c[n+]2[O-])n2cc(-c3ccnc(C(F)(F)F)c3)cn2)n1', 'H'),
  ('COc1ccc(CC(c2ccc(-c3cc(Cl)ccc3-n3cnnn3)c[n+]2[O-])n2cc(-c3ccc(C(=O)O)cc3)cn2)cc1 (stereo not drawn)', 'L'),
  ('Cn1ncc2cc(-c3cnn(C(CC4CC4)c4ccc(-c5c(-n6cnnn6)ccc(Cl)c5F)c[n+]4[O-])c3)ccc21 (stereo not drawn)', 'M'),
  ('N#Cc1cc(-c2cnn(C(CCOC(F)F)c3ccc(-c4c(-n5cnnn5)ccc(Cl)c4F)c[n+]3[O-])c2)ccn1 (stereo not drawn)', 'L'),
  ('O=C(O)c1ccc(-c2cnn(C(CCOC(F)F)c3ccc(-c4c(-n5cc(Cl)nn5)ccc(Cl)c4F)c[n+]3[O-])c2)cc1F (single isomer, unassigned)', 'L');

We now examine a further molecule.
Problem: Which bin should I file Cn1cc(CC(c2ccc(-c3c(-n4cnnn4)ccc(Cl)c3F)c[n+]2[O-])n2cc(-c3ccnc(C(F)(F)F)c3)cn2)nn1 (stereo not drawn) under?
Result: M
